- study-system: recombinant human plasminogen activator inhibitor-1 (PAI-1) (Homo sapiens, UniProt P05121)
- Construct: purchased Molecular Innovations, Royal Oak, Mich
- Sequence (P05121 24-402): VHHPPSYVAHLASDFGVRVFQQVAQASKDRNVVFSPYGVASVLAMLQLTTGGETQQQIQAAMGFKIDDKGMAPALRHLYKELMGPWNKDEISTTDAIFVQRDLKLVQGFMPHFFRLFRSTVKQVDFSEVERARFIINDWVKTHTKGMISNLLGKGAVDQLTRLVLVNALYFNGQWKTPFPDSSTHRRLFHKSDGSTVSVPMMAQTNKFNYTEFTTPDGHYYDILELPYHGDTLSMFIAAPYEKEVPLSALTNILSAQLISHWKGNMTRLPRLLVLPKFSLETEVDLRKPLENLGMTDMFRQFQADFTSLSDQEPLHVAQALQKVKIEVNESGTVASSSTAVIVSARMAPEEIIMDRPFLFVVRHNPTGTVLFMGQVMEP
- protocol: Primary Screen for the PAI-1 Inhibition
- Assay type: biochemical
- cond: 25 μM test compound; read-out: % Inhib. 25 μM
- Protocol: Test compounds are dissolved in DMSO at a final concentration of 10 mM, then diluted 100× in physiologic buffer. […] Following the second incubation, Spectrozyme-tPA (American Diagnostica, Greenwich, Conn.), a chromogenic substrate for tPA, is added and absorbance read at 405 nm at 0 and 60 minutes. […]
parameter-measured: inhibition at 25 µM (%)
Numeric only. Scale: %

See these solved cases before continuing.
>>> df
                                   compound  readout_value
0  Cc1oc2ccccc2c1C(=O)N(Cc1ccccc1)Cc1ccc2c(Br)c(OCc3nnn[nH]3)ccc2c1 [Example 49]             54
1  CCCCc1oc2ccccc2c1C(=O)NCc1ccc2c(-c3ccc(OC)cc3)c(OC(Cc3ccccc3)C(=O)[O-])ccc2c1.[Na+] (stereo not shown) [Example 30]             38
2  CCCc1c(C(=O)NCc2ccc3c(Br)c(OC(Cc4ccccc4)C(=O)O)ccc3c2)cnn1-c1ccccc1 (stereo not shown) [Example 54]             18
3  CCCCc1oc2ccccc2c1C(=O)N(Cc1ccccc1)Cc1ccc2c(Br)c(OC(Cc3ccccc3)C(=O)O)ccc2c1 (stereo not shown) [Example 68]             54
4  CN(Cc1ccc2c(Br)c(OC(Cc3ccccc3)C(=O)O)ccc2c1)C(=O)c1cc(C(C)(C)C)cc(C(C)(C)C)c1 (stereo not shown) [Example 65]             46

Task: # input compound: Cc1c(C(=O)N(C)Cc2ccc3c(Br)c(OCc4nnn[nH]4)ccc3c2)oc2ccccc12 [Example 41] ; wanted: its inhibition at 25 µM
Result: 49

Task: Another compound: CCCCc1c(C(=O)N(C)Cc2ccc3c(Br)c(OCc4nnn[nH]4)ccc3c2)oc2ccccc12 [Example 39]
Result: 24
